Data origin: paper PMC6835155

tgt: LIMK1KD (Homo sapiens, UniProt P53667)
Construct: His6 (N, cleaved yes); made in house; host or cells: baculovirus; Sf9 for virus, TriEx insect cells for expression
Sequence (P53667 330-637): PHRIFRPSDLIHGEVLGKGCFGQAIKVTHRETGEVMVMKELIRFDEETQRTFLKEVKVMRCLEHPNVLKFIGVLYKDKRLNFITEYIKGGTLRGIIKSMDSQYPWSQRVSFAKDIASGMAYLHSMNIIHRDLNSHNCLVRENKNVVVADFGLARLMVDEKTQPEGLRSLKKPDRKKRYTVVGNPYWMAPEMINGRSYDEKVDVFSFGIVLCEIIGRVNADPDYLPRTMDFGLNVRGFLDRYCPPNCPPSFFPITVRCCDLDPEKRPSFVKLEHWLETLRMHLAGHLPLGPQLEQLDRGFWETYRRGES
assay_details: Differential (dynamic) scanning fluorimetry (DSF) assay, LIMK1KD
Type: binding
particulars: 2 µM LIMK1KD, compound 10 µM, single shot; read-out: TM Shift LIMK1 (K)
measurement_label: ΔTm at 10 µM (°C)
Write it as a number; the unit °C goes unstated.

Example results:
query: Need ΔTm at 10 µM of COC[C@H]1OC(=O)c2coc3c2[C@@]1(C)C1=C(C3=O)[C@@H]2CCC(=O)[C@@]2(C)C[C@H]1OC(C)=O , thanks.
result: 0.2

query: Need ΔTm at 10 µM of CC[C@@H]1C(=O)N(C)c2cnc(Nc3ccc(C(=O)N[C@H]4CC[C@H](N5CCN(CC6CC6)CC5)CC4)cc3OC)nc2N1C(C)C , thanks.
result: 0.5

query: Need ΔTm at 10 µM of COCCOc1ccc2c(c1)ncn2-c1ccc2cccc(N3CCC(N)CC3)c2n1 , thanks.
result: 0.9

query: Need ΔTm at 10 µM of C=CC(=O)Nc1cccc(Oc2nc(Nc3ccc(N4CCN(C)CC4)cc3OC)ncc2Cl)c1 , thanks.
result: 1

query: Need ΔTm at 10 µM of Cc1cc(O)c2c(c1)C(=O)c1cccc(O)c1C2=O , thanks.
result: 0.9

query: Need ΔTm at 10 µM of CN1CC[C@H](c2c(O)cc(O)c3c(=O)cc(-c4ccccc4Cl)oc23)[C@H](O)C1 , thanks.
result: 1.9

query: Need ΔTm at 10 µM of CNC(=O)c1cccc(-c2ccc3c(N4CCOC[C@@H]4C)nc(N4CCOC[C@@H]4C)nc3n2)c1 , thanks.
result: 0.2

query: Need ΔTm at 10 µM of COCC(=O)NC/C=C/c1ccc2ncnc(Nc3ccc(Oc4ccc(C)nc4)c(C)c3)c2c1 , thanks.
result: 0.4

Continuing:
query: Need ΔTm at 10 µM of CC1(C)CNc2cc(NC(=O)c3cccnc3NCc3ccncc3)ccc21 [Motesanib Diphosphate (AMG-706), Motesanib Diphosphate] , thanks.
result: 0.6

query: Need ΔTm at 10 µM of O=C(Nc1ccc(-c2ccnc(Nc3ccc(N4CCOCC4)cc3)n2)cc1)C1CCCN1 (stereo not drawn) , thanks.
result: 4

query: Need ΔTm at 10 µM of Oc1cccc(-c2nc(N3CCOCC3)c3oc4ncccc4c3n2)c1 , thanks.
result: -1

query: Need ΔTm at 10 µM of O=C(Nc1ccc(OC(F)(F)F)cc1)c1sccc1NCc1ccnc2ccccc12 , thanks.
result: 0.7

query: Need ΔTm at 10 µM of Cc1nc(Nc2ncc(C(=O)Nc3c(C)cccc3Cl)s2)cc(N2CCN(CCO)CC2)n1 , thanks.
result: 7

query: Need ΔTm at 10 µM of CNC(=O)c1ccccc1Sc1ccc2c(/C=C/c3ccccn3)n[nH]c2c1 , thanks.
result: 2

query: Need ΔTm at 10 µM of Oc1c2ccccc2c2c3c(cccc13)N=N2 , thanks.
result: 1

query: Need ΔTm at 10 µM of COc1ccc(-c2nc(N3CCOCC3)c3sc(CN(C)c4ncc(C(=O)NO)cn4)cc3n2)cn1 , thanks.
result: 0.3

query: Need ΔTm at 10 µM of COc1cc(OC2CCN(C)CC2)ccc1Nc1ncc2c(n1)n(C1CCCC1)c(=O)n2C , thanks.
result: 0.4

query: Need ΔTm at 10 µM of CNC(=O)CN1CCC(Oc2cc3c(Nc4cccc(Cl)c4F)ncnc3cc2OC)CC1 [AZD8931 (Sapitinib), Sapitinib] , thanks.
result: 0.9

query: Need ΔTm at 10 µM of CN(C)C[C@@H]1CCn2cc(c3ccccc32)C2=C(C(=O)NC2=O)c2cn(c3ccccc23)CCO1 , thanks.
result: 1

query: Need ΔTm at 10 µM of Cc1cc(C(=O)NOCCO)c(Nc2ccc(I)cc2F)n(C)c1=O , thanks.
result: 0.3

query: Need ΔTm at 10 µM of CCS(=O)(=O)Nc1ccc2c(c1)/C(=C(/Nc1ccc(CN3CCCCC3)cc1)c1ccccc1)C(=O)N2 , thanks.
result: 2.7

query: Need ΔTm at 10 µM of COc1cc(N2CCC(N3CCN(C)CC3)CC2)ccc1Nc1ncnc(Nc2ccccc2S(=O)(=O)C(C)C)n1 , thanks.
result: 3.7

query: Need ΔTm at 10 µM of Cc1nc(N)sc1-c1ccnc(Nc2ccc(N3CCOCC3)cc2)n1 , thanks.
result: 3.7

query: Need ΔTm at 10 µM of CO[C@H]1C[C@@H]2CC[C@@H](C)[C@@](O)(O2)C(=O)C(=O)N2CCCC[C@H]2C(=O)O[C@H]([C@H](C)C[C@@H]2CC[C@@H](O)[C@H](OC)C2)CC(=O)[C@H](C)/C=C(\C)[C@@H](O)[C@@H](OC)C(=O)[C@H](C)C[C@H](C)/C=C/C=C/C=C/1C [Rapamycin (Sirolimus), Rapamycin] , thanks.
result: -0.1

query: Need ΔTm at 10 µM of C[C@@H](Oc1ccc2[nH]nc(/C=C/c3cnn(CCO)c3)c2c1)c1c(Cl)cncc1Cl , thanks.
result: 2.5

query: Need ΔTm at 10 µM of COc1ccc(Cl)c(Nc2nc3ccccc3nc2NS(=O)(=O)c2cccc(NC(=O)C(C)(C)N)c2)c1 , thanks.
result: -0.1
